- protocol.description: LNCaP cell loss by flow event count, confirmation, cytotoxicity control for prostate differentiation activator project, single point (AID 1076);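 further: counts scatter-gated live cells after medium removal discards detached dead cells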
- condition.summary: flow cytometry event count, 4 d, at 100 µM, stronger effect = lower value
Threshold 30. cell event count below it: Fulfilled. cell event count at it or above: Not fulfilled.

| molecule | classification |
| --- | --- |
| CCc1cc(C)cc(OCCNC(=O)c2ncn[nH]2)c1 | Not fulfilled |
| CCN(CCCNS(=O)(=O)c1ccc2c(c1)oc(=O)n2C)c1cccc(C)c1 | Fulfilled |
| COc1ccc(CCNC(=O)C2CCCN(Cc3nc(-c4ccccc4C)oc3C)C2)cc1OC (stereo unspecified) | Fulfilled |
| COc1ccc(S(=O)(=O)Nc2ccc(F)c(Cl)c2)cc1OC | Fulfilled |
| COc1ccc(-c2ccc(-c3nnn(CC(C)=O)n3)cc2)cc1 | Not fulfilled |
| O=C(Nc1ccc2oc(Cc3ccc(Cl)cc3)nc2c1)c1cccnc1 | Fulfilled |

Please determine if CC(C)Cc1nc2oc3c(N4CCN(CCO)CC4)ncnc3c2c2c1CCCC2 is below 30 in terms of cell event count.
Fulfilled

Please determine if COC(=O)c1[nH]c2c(c1C)C(=O)CCC2 is below 30 in terms of cell event count.
Not fulfilled

###

- protocol.description: LNCaP cell loss by flow event count, confirmation, cytotoxicity control for prostate differentiation activator project, single point (AID 1076);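 further: counts scatter-gated live cells after medium removal discards detached dead cells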
- condition.summary: flow cytometry event count, 4 d, at 100 µM, stronger effect = lower value
test.readout: cell event count
Numbers only.

Illustrative cases are given below, each with its answer.
| molecule | cell event count |
| --- | --- |
| COc1ccc(N2CCN(CCCNC(=O)C3CCCN(S(=O)(=O)c4cnc[nH]4)C3)CC2)cc1 (stereo not given) | 31 |
| COc1ccc(-c2noc(-c3cc(Cl)ccc3Cl)n2)cc1OC | 77 |
| Cc1ccccc1-c1nc(CN2CCC(C(=O)NCCCN3CCCC3)CC2)c(C)o1 | 20 |
| CCn1c(=O)cc(SCC(=O)NCCCN2CCN(c3ccc(F)cc3)CC2)c2ccccc21 | 14 |
| CCS(=O)(=O)N1CCC(C(=O)NCCCN2CCN(c3ccccc3F)CC2)CC1 | 135 |

Required: cell event count, one value per molecule below.
1. CCOC(=O)C1CCN(S(=O)(=O)c2ccc(-c3nc4ccccc4s3)s2)CC1
2. CCN1CCCC1CNC(=O)C1CCN(Cc2nc(-c3cccc(Br)c3)oc2C)CC1 (stereo not given)
3. CN(CCNC(=O)C1CC(=O)N(c2ccc(F)c(Cl)c2)C1)Cc1ccccc1 (stereo not given)
4. OCc1nc2ccccc2n1CCCOc1ccccc1
5. Cc1ccc(Oc2ccc(S(=O)(=O)N3CCOCC3)cc2C(N)=O)c(-n2nc3ccccc3n2)c1

70
16
79
178
5

###

- protocol.description: LNCaP cell loss by flow event count, confirmation, cytotoxicity control for prostate differentiation activator project, single point (AID 1076);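 further: counts scatter-gated live cells after medium removal discards detached dead cells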
- condition.summary: flow cytometry event count, 4 d, at 100 µM
The source made the active and inactive calls.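 How the source made its calls: active means cell event count below 40, meaning activity score above 60 where score is 100 minus count; inactive means the rest.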
In this exercise, the only acceptable responses are active, inactive

Here's what some known entries look like.
| compound | classification |
| --- | --- |
| O=C(Cc1coc(-c2ccc(F)cc2)n1)N1CCOCC1 | inactive |
| COc1ccc2cc3cc(C(=O)Nc4ccccc4N4CCN(C)CC4)oc3nc2c1 | inactive |
| c1ccc(OCCCn2nnc(-c3cccnc3)n2)cc1 | inactive |
| Cc1noc(C)c1S(=O)(=O)N1CCC(C(=O)NCCN2CCC(C)CC2)CC1 | inactive |
| COCCNC(=O)CC(NS(=O)(=O)c1ccc(NC(C)=O)cc1)C(C)C (configuration not stated) | inactive |

State the result this test recorded for O=C(CSc1nc2sc3c(c2c(=O)n1-c1ccccc1)CCCC3)NCc1ccco1 .
inactive

State the result this test recorded for CCOC(=O)c1c(C)n(C)c2ccc(OCC(O)CNC(CC)CO)cc12 (configuration not stated) .
inactive

State the result this test recorded for COc1ccc(CCNC(=O)C2CCCN(Cc3nc(-c4cccc(Cl)c4)oc3C)C2)cc1OC (configuration not stated) .
inactive

State the result this test recorded for Cc1cc(O)c(-c2cc(C(=O)Nc3ccc(S(=O)(=O)N4CCOCC4)cc3)[nH]n2)cc1C .
inactive

State the result this test recorded for CCOC(=O)c1c(NCc2ccc3c(c2)OCO3)c2ccccc2[nH]c1=O .
inactive
